Target: human H3 receptor (Homo sapiens)
Construct: expressed in transfected cells
Test: In vitro H3 binding assay (3H-N-α-methyl-histamine competition binding)
Details: membranes of CHO-K1 cells expressing human H3 receptor; 2 nM 3H-NαMH; read-out: hH3 binding IC50
pIC50: −log10 of the molar value.
Form field: pIC50 (one value per entry).

Compound	pIC50
O=C(NCc1cccc(C(F)(F)F)c1)c1ccc2c(c1)CCN(C1CCC1)CC2 [Example 59]	8.22
Cn1cncc1CNC(=O)c1ccc2c(c1)CCN(C1CCC1)CC2 [Example 114]	7.92
Cc1nc(C)c(C(=O)NCc2ccc3c(c2)CCN(C2CCC2)CC3)s1 [Example 268]	8.40
CCC(=O)N1CCC(CC(O)Cc2ccc3c(c2)CCN(C2CCC2)CC3)CC1 (single isomer, unassigned) [Example 233]	8.70
Cc1noc(C)c1C(=O)NCc1ccc2c(c1)CCN(C1CCC1)CC2 [Example 263]	7.74
CC(C)(O)c1ccc(C(=O)NCc2ccc3c(c2)CCN(C2CCC2)CC3)cn1 [Example 239]	7.80
O=C(NCc1ccc2c(c1)CCN(C1CCC1)CC2)N1CCCC1 [Example 194]	7.59
CCn1cc(Cl)c(CNC(=O)c2ccc3c(c2)CCN(C2CCC2)CC3)n1 [Example 106]	7.89
O=C(NCC1CCNCC1)c1ccc2c(c1)CCN(C1CCC1)CC2 [Example 5]	7.66

* * *

Form field: pIC50 (one value per entry).
Molecular target: human H3 receptor (Homo sapiens, UniProt Q9Y5N1)
Construct: expressed in transfected cells
Sequence (Q9Y5N1 whole entry): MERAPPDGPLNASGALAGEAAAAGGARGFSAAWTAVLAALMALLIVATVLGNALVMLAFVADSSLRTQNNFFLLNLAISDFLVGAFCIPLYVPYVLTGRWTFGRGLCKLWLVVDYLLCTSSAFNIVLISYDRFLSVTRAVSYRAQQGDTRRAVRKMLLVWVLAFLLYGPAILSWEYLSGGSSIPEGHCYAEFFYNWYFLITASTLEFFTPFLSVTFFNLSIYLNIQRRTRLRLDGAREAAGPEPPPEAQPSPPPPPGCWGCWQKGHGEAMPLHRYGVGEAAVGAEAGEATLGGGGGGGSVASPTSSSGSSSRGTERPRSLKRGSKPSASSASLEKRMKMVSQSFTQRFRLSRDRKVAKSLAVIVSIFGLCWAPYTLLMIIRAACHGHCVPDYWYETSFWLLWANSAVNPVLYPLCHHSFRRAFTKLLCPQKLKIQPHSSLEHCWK
Assay: In vitro H3 functional assay (cAMP response element driven luciferase reporter)
Type: cell-based
Conditions: CHO(dhfr+)-cre-luc cells expressing human H3 receptor; RαMH 10 nM, forskolin 1 μM; read-out: hH3 functional IC50
pIC50: −log10 of the molar value.
Measurement Type: pIC50

Compound	Measurement Type	Number
C[C@@H]1CCCN1C(=O)NCc1ccc2c(c1)CCN(C1CCC1)CC2	pIC50	8.40
O=C(NCc1ccsc1)c1ccc2c(c1)CCN(C1CCC1)CC2	pIC50	8.70
CC(=O)N1CCC(C(O)Cc2ccc3c(c2)CCN(C2CCC2)CC3)CC1 (racemic)	pIC50	8.00
CC(C)(O)CC(=O)NCc1ccc2c(c1)CCN(C1CCC1)CC2	pIC50	7.70
OC(Cc1ccc2c(c1)CCN(C1CCC1)CC2)c1ccccn1 (centres unmarked)	pIC50	8.15
CC(=O)N1CCCC(CNC(=O)c2ccc3c(c2)CCN(C2CCC2)CC3)C1 (centres unmarked)	pIC50	8.30
Cn1ccc2c(CNC(=O)c3ccc4c(c3)CCN(C3CCC3)CC4)cccc21	pIC50	9.00
CCC(=O)N1CCC(C)(C(O)Cc2ccc3c(c2)CCN(C2CCC2)CC3)CC1 (single isomer, unassigned)	pIC50	8.15

* * *

Biological target: human H3 receptor (Homo sapiens)
Construct: expressed in transfected cells
Experiment: In vitro H3 binding assay (3H-N-α-methyl-histamine competition binding)
Conditions: membranes of CHO-K1 cells expressing human H3 receptor; 2 nM 3H-NαMH; read-out: hH3 binding IC50
Form field: IC50 (one value per entry).
Measurement Type: IC50 (nM)

Compound	Unit Of Measurement	Number
CNC(=O)c1ccc2c(c1)CCN(C1CCC1)CC2	nM	44
O=C(NCc1ccncc1)c1ccc2c(c1)CCN(C1CCC1)CC2	nM	3
O=C(NCc1ccc2c(c1)CCN(C1CCC1)CC2)[C@H]1C[C@@H](OC2CCOCC2)C1	nM	62
O=C(NCc1ccc2c(c1)CCN(C1CCC1)CC2)c1ccc(NCC2CC2)nc1	nM	0.3
CCn1nccc1CNC(=O)c1ccc2c(c1)CCN(C1CCC1)CC2	nM	2
O=C1CCCN1Cc1ccc2c(c1)CCN(C1CCC1)CC2	nM	61
Cc1cc(CNC(=O)c2ccc3c(c2)CCN(C2CCC2)CC3)c(C)o1	nM	6
COC(=O)c1ccc(CNC(=O)c2ccc3c(c2)CCN(C2CCC2)CC3)cc1	nM	24
O=C(NCc1ccc2nccn2c1)c1ccc2c(c1)CCN(C1CCC1)CC2	nM	0.4
Cc1nc(CNC(=O)c2ccc3c(c2)CCN(C2CCC2)CC3)c(C)o1	nM	29
O=C(NCc1ccc2c(c1)CCN(C1CCC1)CC2)c1cnc(N2CCCC2)nc1	nM	0.3
O=C(NCc1ccccn1)c1ccc2c(c1)CCN(C1CCC1)CC2	nM	13
Cn1c(CNC(=O)c2ccc3c(c2)CCN(C2CCC2)CC3)nc2ccccc21	nM	6
Cn1nc(-c2cccs2)cc1CNC(=O)c1ccc2c(c1)CCN(C1CCC1)CC2	nM	2
Cn1ncc(Cl)c1CNC(=O)c1ccc2c(c1)CCN(C1CCC1)CC2	nM	18
CCCOc1ccc(C(=O)NCc2ccc3c(c2)CCN(C2CCC2)CC3)cn1	nM	18
NC(=O)c1ccc2c(c1)CCN(C1CCC1)CC2	nM	22
CN(Cc1ccc2c(c1)CCN(C1CCC1)CC2)C(=O)c1cnc(N2CCCC2)nc1	nM	1
Cn1ccc2cc(CNC(=O)c3ccc4c(c3)CCN(C3CCC3)CC4)ccc21	nM	15
CNC(=O)c1ccc(CNC(=O)c2ccc3c(c2)CCN(C2CCC2)CC3)cc1	nM	51
O=C(NCc1ccc2c(c1)CCN(C1CCC1)CC2)c1cncc(F)c1	nM	13
O=C(NCc1ccc(Cl)cc1)c1ccc2c(c1)CCN(C1CCC1)CC2	nM	11
O=C(NCC1CCOCC1)c1ccc2c(c1)CCN(C1CCC1)CC2	nM	11
O=C(Cc1ccc2c(c1)CCN(C1CCC1)CC2)Nc1ccc(N2CCCC2)nc1	nM	8
O=C(NCc1ccc2c(c1)CCN(C1CC(O)C1)CC2)c1ccc(N2CCCC2)nc1 (stereo not drawn)	nM	1
O=C(NCc1ccccc1Cl)c1ccc2c(c1)CCN(C1CCC1)CC2	nM	6
O=C(NCc1ccc2c(c1)CCN(C1CCOC1)CC2)c1ccc(N2CC[C@H](F)C2)nc1 (stereo partly drawn)	nM	5
Cc1nn(-c2ccccc2)c(C)c1CNC(=O)c1ccc2c(c1)CCN(C1CCC1)CC2	nM	17
CCNC(=O)c1ccc2c(c1)CCN(C1CCC1)CC2	nM	37
OC(Cc1ccc2c(c1)CCN(C1CCC1)CC2)c1ccccn1 (stereo not drawn)	nM	24
C[C@@H](O)CN(C)c1ccc(C(=O)NCc2ccc3c(c2)CCN(C2CCC2)CC3)cn1	nM	0.9
O=C(NCc1ccc2c(c1)CCN(C1CCC1)CC2)c1ccc(NC2CCOC2)nc1 (stereo not drawn)	nM	1
O=C(NCc1ccccc1C(F)(F)F)c1ccc2c(c1)CCN(C1CCC1)CC2	nM	12
O=C(NCc1ccc2c(c1)CCN(C1CC(F)C1)CC2)c1ccc(N2CCCC2)nc1 (stereo not drawn)	nM	0.6
O=C(NCc1ccc2[nH]ccc2c1)c1ccc2c(c1)CCN(C1CCC1)CC2	nM	3
O=C(NCc1cccc(-n2cncn2)c1)c1ccc2c(c1)CCN(C1CCC1)CC2	nM	1

* * *

Biological target: human H3 receptor (Homo sapiens, UniProt Q9Y5N1)
Construct: expressed in transfected cells
Experiment: In vitro H3 binding assay (3H-N-α-methyl-histamine competition binding)
Conditions: membranes of CHO-K1 cells expressing human H3 receptor; 2 nM 3H-NαMH; read-out: hH3 binding IC50
Form field: IC50 (one value per entry).

Molecule	IC50, nM
O=C(NCc1ccncc1)c1ccc2c(c1)CCN(C1CCCC1)CC2 [Example 21]	13
Cn1cccc1CNC(=O)c1ccc2c(c1)CCN(C1CCC1)CC2 [Example 111]	7
O=C(NCc1cc(-c2cccs2)on1)c1ccc2c(c1)CCN(C1CCC1)CC2 [Example 84]	10
Cn1nccc1CCC(O)c1ccc2c(c1)CCN(C1CCC1)CC2 (stereo not drawn) [Example 137]	26
O=C(NCc1ccc2c(c1)CCN(C1CCC1)CC2)c1ccc(O[C@H]2CCOC2)nc1 [Example 281]	0.8
O=C(NCC1CCS(=O)(=O)C1)c1ccc2c(c1)CCN(C1CCC1)CC2 (stereo not drawn) [Example 171]	14
O=C(NCCc1ccccc1)c1ccc2c(c1)CCN(C1CCC1)CC2 [Example 38]	9
C[C@H](O)CNc1ccc(C(=O)NCc2ccc3c(c2)CCN(C2CCC2)CC3)cn1 [Example 290]	3
O=C(NC1CCC1)c1ccc2c(c1)CCN(C1CCC1)CC2 [Example 27]	21

* * *

Form field: pIC50 (one value per entry).
Target: human H3 receptor (Homo sapiens)
Construct: expressed in transfected cells
Assay: In vitro H3 binding assay (3H-N-α-methyl-histamine competition binding)
Conditions: membranes of CHO-K1 cells expressing human H3 receptor; 2 nM 3H-NαMH; read-out: hH3 binding IC50
pIC50: −log10 of the molar value.
Measurement Type: pIC50

Cc1ncc(C(=O)NCc2ccc3c(c2)CCN(C2CCC2)CC3)cn1 8.22
O=C(NC1CCCC1)c1ccc2c(c1)CCN(C1CCC1)CC2 7.89
O=C(NCc1cccc(Cl)c1)c1ccc2c(c1)CCN(C1CCC1)CC2 8.40
COc1nc(C)c(C(=O)NCc2ccc3c(c2)CCN(C2CCC2)CC3)s1 8.15
CC(C)NC(=O)c1ccc2c(c1)CCN(C1CCC1)CC2 7.44
O=C(NCc1cccc(Cn2cccn2)c1)c1ccc2c(c1)CCN(C1CCC1)CC2 8.30
COCC(C)(C)Oc1ccc(C(=O)NCc2ccc3c(c2)CCN(C2CCC2)CC3)cn1 8.70
COc1ccc(CC(=O)Cc2ccc3c(c2)CCN(C2CCC2)CC3)cn1 8.00
O=C(NCc1cccnc1)c1ccc2c(c1)CCN(C1CCCC1)CC2 7.96
